Assay: clinical
Conditions: human, in vivo, inhaled or intranasal, 10 mg
endpointName: Tmax (min)

Cc1ccc(NC(=O)c2ccc(CN3CCN(C)CC3)cc2)cc1Nc1nccc(-c2cccnc2)n1 ... 10.8

====

Test: clinical
Details: human, plasma, inhaled, 10 mg, Cav, imatinib in plasma; MAD Day 7; inhaled 10 mg AV-101 BID; mean
endpointName: concentration at 7 day (ng/mL)

Cc1ccc(NC(=O)c2ccc(CN3CCN(C)CC3)cc2)cc1Nc1nccc(-c2cccnc2)n1 ... 49.1
